Could you please report measured Kd for the items listed next?
- target entity: WT Spike (SARS-CoV2)
Give bare numbers, in pM.

- binder: "Ab_23 scFv-Fc (scFv, V domains shown) VH: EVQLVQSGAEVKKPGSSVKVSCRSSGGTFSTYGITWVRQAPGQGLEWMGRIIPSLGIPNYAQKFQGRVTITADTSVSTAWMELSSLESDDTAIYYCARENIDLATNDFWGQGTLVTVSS VL: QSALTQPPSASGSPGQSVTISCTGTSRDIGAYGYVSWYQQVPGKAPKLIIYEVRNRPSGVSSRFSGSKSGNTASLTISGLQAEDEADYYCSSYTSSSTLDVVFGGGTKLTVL"
  readout value: 8.84

Shifting focus to the binder that follows.
**Q:** # input binder: Ab_18 scFv-Fc (scFv, V domains shown) VH: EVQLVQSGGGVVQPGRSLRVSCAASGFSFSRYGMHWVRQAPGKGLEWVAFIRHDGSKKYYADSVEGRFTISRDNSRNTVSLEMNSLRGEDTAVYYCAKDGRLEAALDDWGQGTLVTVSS VL: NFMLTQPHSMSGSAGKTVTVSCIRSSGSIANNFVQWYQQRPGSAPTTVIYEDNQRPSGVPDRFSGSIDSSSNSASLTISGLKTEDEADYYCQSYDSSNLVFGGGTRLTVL ; wanted: its Kd
**A:** 9.07
